As shown below, each of these compounds has a reported TGI value.
- Tested on: KM12 colon
- measurement description: NCI tumour cell line growth inhibition, 48 h
readout: TGI

compound	value observed
COc1cc2c3c(c1OC)/C(=N/OS(=O)(=O)c1ccc(C)cc1)CC3N(S(=O)(=O)c1ccc(C)cc1)CC2 (stereo not given)	> 100 µM
CCOC(=O)/N=c1\ssc(Cl)c1Cl	35.9 µM
COc1cc2c3cc1Oc1cc(ccc1O)C[C@@H]1c4c(cc(OC)c(O)c4Oc4ccc(cc4)C[C@@H]3[N+](C)(C)CC2)CC[N+]1(C)C	> 100 µM
CCOC(=O)C(=Cc1c(-c2ccccc2)[nH]c2ccccc12)C(=O)OCC	12 µM
O=C(O)CCSc1ncnc2nc[nH]c12	> 100 µM

---

- Test system: OVCAR-5 ovarian
- measurement description: NCI tumour cell line growth inhibition, 48 h
Measured TGI accompanies every entry in the list below.

molecule	TGI
O=C(O)C(O)c1ccc(F)cc1 (centres undefined)	> 100 µM
CNc1ccc(N=Nc2cccc3ncccc23)cc1	> 100 µM
N#Cc1c(-c2ccc(Cl)cc2)csc1NC(=O)Nc1cccc(C(F)(F)F)c1	12.9 µM
COc1cc(/C=C2/C(=O)N(C(=O)c3ccccc3O)N=C2C)ccc1O	> 100 µM
O/N=C/[C@H]1COC2(CCCCC2)O1	> 100 µM
COc1ccc2c(c1)CCC(CN1CCN(CCOC(c3ccccc3)c3ccccc3)CC1)C2O (centres undefined)	30.5 µM
CC[C@H](C)[C@H](NC(=O)N[C@@H](C)c1ccccc1)C(=O)N(C)[C@H](C[C@@H](OC(C)=O)c1nc(C(=O)N[C@@H](Cc2ccccc2)C[C@H](C)C(=O)OC)cs1)C(C)C	> 100 µM
Cc1cc(C(=O)Nc2cc(Nc3ncccc3-c3ncnc4nc[nH]c34)ccc2F)cc(C(C)(C)C#N)c1	> 100 µM
COc1ccc(C(=C2C(=O)OC(=O)C2=C(C)C)c2ccc(OC)cc2)cc1	> 100 µM
COc1cc2c3cc1Oc1cc(ccc1O)C[C@@H]1c4c(cc(OC)c(O)c4Oc4ccc(cc4)C[C@@H]3[N+](C)(C)CC2)CC[N+]1(C)C	> 100 µM
Nn1nnc2ccccc21	> 100 µM
Fc1ccc(OCc2ccc3nc(-c4ccccc4)c(Cl)nc3c2)cc1	> 100 µM
COc1ccc2nc3cc(Cl)ccc3c(Nc3ccc(O)c(CN4CCCC4)c3)c2c1	7.62 µM
COc1cc(/C=C2\C(=O)Nc3ccc(Br)cc32)cc(OC)c1OC	> 100 µM
Cc1cc(S(N)(=O)=O)c(S/C(=N\NS(=O)(=O)c2ccccc2)c2ccc(Cl)c(Cl)c2)cc1Cl	> 100 µM
C=CCN(c1cc(OC)c2[nH]c(C(=O)O)c(C)c2c1[N+](=O)[O-])S(C)(=O)=O	> 100 µM
CCCCCCCCCCCCCCCCCCNC(=O)[C@H]1CSC(c2ccc(F)c(OC)c2)N1 (some centres undefined)	1.91 µM
O=C1[C@H]2ON(c3ccccc3)C(c3cccc([N+](=O)[O-])c3)[C@H]2C(=O)N1c1ccc(Cc2ccc(N3C(=O)[C@@H]4ON(c5ccccc5)C(c5cccc([N+](=O)[O-])c5)[C@@H]4C3=O)cc2)cc1 (some centres undefined)	> 100 µM
O=C1c2c(Br)sc(Br)c2[C@H]2OC(=S)N[C@@H]12	32.4 µM

---

- Tested on: MOLT-4 leukemia
- measurement description: NCI tumour cell line growth inhibition, 48 h; in the data active means GI50 below about 0.43 µM; inactive means the rest
Classes used: yes (active), no (inactive)

compound	assigned label
NCCn1c2c(c3ccccc3c1=O)C(=O)c1ccccc1-2	yes
O=C(Nc1cccc(Cl)c1)c1cc(Cl)ccc1O	no
Fc1ccc(-c2cc(-c3cn[nH]c3-c3ccccn3)ccn2)cc1	no
N#CC1=C(N)Oc2c(sc3c(Br)cccc23)C1c1ccc(F)cc1 (configuration not stated)	no
Cc1ccc(-c2cc(C(Cl)Cl)on2)cc1	no
COc1ccc(-c2nn(-c3cccc(Cl)c3)cc2-c2cc(-c3cccs3)no2)cc1	no
CC(C)c1ccc2c(c1)c(SC(C)(C)C)c(CC(C)(C)C(=O)O)n2Cc1ccc(Cl)cc1	no
O=c1c2ccccc2c(=O)c2c1sc1c(=O)c3ccc(O)cc3c(=O)c12	no
N#CC1=C(N)NC(=S)C(C#N)C12Nc1ccccc1S2 (configuration not stated)	no
Cc1cc([C@H](C)Nc2nccc(N3C(=O)OC[C@@H]3[C@H](C)F)n2)ncc1-c1ccnc(C(F)(F)F)c1	no
COc1cc2c(c(OC)c1OC)-c1ccc(SC)c(=O)cc1[C@@H](NC(=O)c1ccc(F)cc1)CC2	yes
O=C1C2=C(Nc3cc([N+](=O)[O-])ccc3N2)OC1c1ccc(C2OC3=C(Nc4ccc([N+](=O)[O-])cc4N3)C2=O)cc1 (configuration not stated)	no

---

- System: LXFL 529 NSCLC
- measurement description: NCI tumour cell line growth inhibition, 48 h

compound	TGI
CC1(C)Oc2ccccc2N2O[C@@H]3C(=O)N(c4ccccc4)C(=O)[C@@H]3C21c1ccccc1 (stereo not given in full)	> 100 µM
Cc1ccc(N2C(=O)/C(=C3\Sc4c(nc(C)n(C)c4=O)N3c3ccccc3)SC2=S)cc1	> 100 µM
CCOC(=O)c1cc(C(=O)O)c(=O)n2c1[nH]c1ccccc12	> 100 µM
C=CCN(N=O)C(=O)ON1C(=O)CCC1=O	> 100 µM
COC(=O)Cc1cc(=O)oc2c1C(=O)CCC2	> 100 µM
CCCCOP1(=O)C=CC(Cl)=C(C)C1 (stereo not given)	94.4 µM
CN1C(=O)CC2(C)c3cc(C=O)ccc3N(C)C12 (stereo not given)	> 100 µM
O=C1CN(c2ccccc2)C(=O)C1C(=O)Nc1ccc(Cl)c(Cl)c1 (stereo not given)	14.3 µM
COC(=O)C1=C(C(=O)OC)N(C(C)C)[C@H]2C(C(=O)OC)=C(C(=O)OC)N(C(C)C)[C@@H]12	> 100 µM
c1cc2ccc1C1NCCCN1CCN1CCCNC1c1ccc(cc1)C1NCCCN1CCN1CCCNC21 (stereo not given)	> 100 µM

---

- Tested on: CCRF-CEM leukemia
- measurement description: NCI tumour cell line growth inhibition, 48 h

compound	measured target	TGI
Cc1ccc(N2C(=O)/C(=C3\Sc4c(nc(C)n(C)c4=O)N3c3ccccc3)SC2=S)cc1	CCRF-CEM leukemia	> 100 µM
C=C1c2ccccc2N(S(=O)(=O)c2ccc(C)cc2)C12CCCCC2	CCRF-CEM leukemia	> 100 µM
CC1=NN(c2cccc(Cl)c2)C2(C1=Cc1ccc(N(C)C)cc1)C(Cl)C(=O)N2c1nc2ccccc2s1 (configuration not stated)	CCRF-CEM leukemia	> 100 µM
CC(=O)Nc1ccc2c(c1)nc1c3ccccc3ccn21	CCRF-CEM leukemia	> 100 µM
COc1cc(-c2nn3c(=O)n(-c4ccc(Cl)cc4)c(=O)nc3s2)cc(OC)c1OC	CCRF-CEM leukemia	> 100 µM
Cc1cc(Nc2cc(N3CCN(C)CC3)nc(C#Cc3ccccc3)n2)n[nH]1	CCRF-CEM leukemia	> 69.5 µM
O=C(O)Cn1c[n+](NC(=O)Cc2ccccc2)cn1	CCRF-CEM leukemia	> 10 µM
CCOC(=O)OC1(c2ccccc2)CCN(C)CC1	CCRF-CEM leukemia	> 100 µM
C1=CC=C2NCCSCCNC3=CC=CC=CC3=NCCSCCN=C2C=C1	CCRF-CEM leukemia	> 100 µM
CC(C)(C)C#CI1OC(=O)c2ccccc21	CCRF-CEM leukemia	6.09 µM
Nc1cc2nc(-c3ccccc3)cn2cn1	CCRF-CEM leukemia	> 100 µM
O=c1ccn([C@@H]2C=C(CO)[C@@H](O)[C@H]2O)c(=O)[nH]1	CCRF-CEM leukemia	> 625 µM
C=CCN(c1cc(OC)c2[nH]c(C(=O)O)c(C)c2c1[N+](=O)[O-])S(C)(=O)=O	CCRF-CEM leukemia	> 100 µM
Fc1ccc(OCc2ccc3nc(-c4ccccc4)c(Cl)nc3c2)cc1	CCRF-CEM leukemia	89.8 µM
CC(C)c1ccc2c(c1)c(SC(C)(C)C)c(CC(C)(C)C(=O)O)n2Cc1ccc(Cl)cc1	CCRF-CEM leukemia	29.1 µM
COc1ccc(-c2nn(-c3cccc(Cl)c3)cc2/C=C2\C(=N)N(c3ccccc3)N=C2N)cc1	CCRF-CEM leukemia	> 58.7 µM
O=C(O)CCSc1ncnc2nc[nH]c12	CCRF-CEM leukemia	> 100 µM
COc1ccc(-c2nn(-c3cccc(Cl)c3)cc2-c2cc(-c3cccs3)no2)cc1	CCRF-CEM leukemia	> 100 µM
CCc1nc2c([nH]1)C(=O)c1ccccc1C2=O	CCRF-CEM leukemia	> 100 µM
Cc1nn(C(=O)c2ccccc2O)c2c1C(c1ccc([N+](=O)[O-])cc1)SC(N)=N2 (configuration not stated)	CCRF-CEM leukemia	> 9.13 µM
CC(Br)CN(CC(C)Br)c1ccc2c(c1)Cc1ccccc1-2 (configuration not stated)	CCRF-CEM leukemia	> 100 µM
COC(=O)Cc1cc(=O)oc2c1C(=O)CCC2	CCRF-CEM leukemia	> 100 µM

Data credit: PubChem BioAssay (NCI)
